experiment: Half life period in the absence of CPG2 (carboxypeptidase) enzyme
Assay type: ADME
experimental_endpoint: half-life
Could you give the number and then its unit, please?

// lookup half-life for COc1cccc2c1C(=O)c1c(O)c3c(c(O)c1C2=O)C[C@@](O)(C(=O)CO)C[C@@H]3OC1CC(NC(=O)OCc2ccc(OC(=O)NC(CCC(=O)O)C(=O)O)cc2)C(O)C(C)O1 (some centres undefined) 28.4 h

// lookup half-life for COc1cccc2c1C(=O)c1c(O)c3c(c(O)c1C2=O)C[C@@](O)(C(C)=O)C[C@@H]3OC1CC(NC(=O)OCc2ccc(OC(=O)NC(CCC(=O)O)C(=O)O)cc2)C(O)C(C)O1 (some centres undefined) 24.7 h

// lookup half-life for COc1cccc2c1C(=O)c1c(O)c3c(c(O)c1C2=O)C[C@@](O)(C(C)=O)C[C@@H]3OC1CC(NC(=O)OCc2ccc(NC(=O)NC(CCC(=O)O)C(=O)O)cc2)C(O)C(C)O1 (some centres undefined) 19.8 h

// lookup half-life for COc1cccc2c1C(=O)c1c(O)c3c(c(O)c1C2=O)C[C@@](O)(C(=O)CO)C[C@@H]3OC1CC(NC(=O)OCc2ccc(NC(=O)NC(CCC(=O)O)C(=O)O)cc2)C(O)C(C)O1 (some centres undefined) 15.8 h

Cited source: ChEMBL document CHEMBL1132269
